- experiment: Metabolic stability in human liver microsomes (HLM)
- Format: in vitro ADME
- measurement parameters: read-out: Metabolic Stability HLM t½
property measured: half-life at 1 μM

In: So what does the record say about half-life at 1 μM for CC(C)(C)N1CCN(Cc2cc3nc(-n4c(C(F)F)nc5ccccc54)cc(N4CCOCC4)n3n2)CC1 [Compound 6] ?
Out: 2.42 h

###

- experiment: Plasma protein binding, human
- Type: in vitro ADME
property measured: fraction unbound
Could you keep your reply to the number by itself?

In: Look up fraction unbound: `CC(C)(C)N1CCN(Cc2cc3nc(-n4c(C(F)F)nc5ccccc54)cc(N4CCOCC4)n3n2)CC1`
Out: 0.21

###

- experiment: Plasma protein binding, monkey
- Assay type: in vitro ADME
property measured: fraction unbound
Kindly provide the number alone.

In: Consider the compound shown here: CC(C)(C)N1CCN(Cc2cc3nc(-n4c(C(F)F)nc5ccccc54)cc(N4CCOCC4)n3n2)CC1 [Compound 6] What is its recorded fraction unbound?
Out: 0.19

###

- tested target: PI3Kγ (Homo sapiens)
- Construct: purchased Merck Millipore
- Sequence (P48736 whole entry): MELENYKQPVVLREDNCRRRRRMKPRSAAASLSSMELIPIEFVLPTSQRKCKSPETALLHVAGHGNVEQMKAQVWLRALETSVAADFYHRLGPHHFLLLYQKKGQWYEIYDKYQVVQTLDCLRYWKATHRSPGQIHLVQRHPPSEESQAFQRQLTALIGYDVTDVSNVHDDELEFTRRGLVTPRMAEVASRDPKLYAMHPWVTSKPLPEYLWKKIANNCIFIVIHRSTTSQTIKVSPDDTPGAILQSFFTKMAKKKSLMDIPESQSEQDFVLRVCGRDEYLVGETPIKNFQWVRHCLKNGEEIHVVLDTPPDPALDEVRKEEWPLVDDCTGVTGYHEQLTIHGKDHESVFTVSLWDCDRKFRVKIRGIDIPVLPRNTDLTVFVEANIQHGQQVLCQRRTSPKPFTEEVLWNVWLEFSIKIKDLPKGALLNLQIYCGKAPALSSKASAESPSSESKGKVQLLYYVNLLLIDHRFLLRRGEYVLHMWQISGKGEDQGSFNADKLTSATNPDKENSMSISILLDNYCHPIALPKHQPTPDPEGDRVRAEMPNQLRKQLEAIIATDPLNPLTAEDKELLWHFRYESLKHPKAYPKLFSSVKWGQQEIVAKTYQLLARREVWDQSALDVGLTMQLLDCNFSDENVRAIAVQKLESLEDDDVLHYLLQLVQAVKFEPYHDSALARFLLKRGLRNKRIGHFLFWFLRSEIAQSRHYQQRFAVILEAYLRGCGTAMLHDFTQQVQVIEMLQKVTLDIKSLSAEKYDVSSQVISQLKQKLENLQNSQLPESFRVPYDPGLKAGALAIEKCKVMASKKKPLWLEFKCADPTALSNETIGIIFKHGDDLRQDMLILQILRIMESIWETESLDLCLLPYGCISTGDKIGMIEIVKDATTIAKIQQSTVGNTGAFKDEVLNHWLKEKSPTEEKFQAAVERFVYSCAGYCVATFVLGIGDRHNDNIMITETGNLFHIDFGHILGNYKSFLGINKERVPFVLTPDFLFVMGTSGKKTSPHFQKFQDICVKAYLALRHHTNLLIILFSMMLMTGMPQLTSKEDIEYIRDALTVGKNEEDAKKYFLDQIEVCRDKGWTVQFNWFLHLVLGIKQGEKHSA
- experiment: In vitro PI3K inhibition assay (ADP-Glo kinase assay), PI3Kγ
- Format: biochemical
- measurement parameters: ratio IC50 PI3Kγ / IC50 PI3Kδ
property measured: Fold Selectivity γ/δ
Returns: the value as a bare number; no unit string appended.

Observe how each entry below is paired with its result.
                                   molecule  endpoint_value
0  CC1(O)CCN(Cc2cc3nc(-n4c(C(F)F)nc5ccccc54)cc(N4CCOCC4)n3n2)CC1              12
1  Cc1nc2ccccc2n1-c1cc(N2CCOCC2)n2nc(CN3CCN(C(C)(C)C)CC3)cc2n1             742
2  FC(F)c1nc2ccccc2n1-c1cc(N2CCOCC2)n2nc(CN3CCC(N4CCOCC4)CC3)cc2n1              17
3  NC1CCN(Cc2cc3nc(-n4c(C(F)F)nc5ccccc54)cc(N4CCOCC4)n3n2)C1 (stereo not drawn)              12

In: I would be grateful if you could share the reported Fold Selectivity γ/δ for O=C(c1cc2nc(-n3c(C(F)F)nc4ccccc43)cc(N3CCOCC3)n2n1)N1CCCC1CO (stereo not drawn) .
Out: 4.4

In: Which Fold Selectivity γ/δ reading was recorded for the molecule OCC1CCCN1Cc1cc2nc(-n3c(C(F)F)nc4ccccc43)cc(N3CCOCC3)n2n1 (stereo not drawn) ?
Out: 4.2

In: I'd like to know its Fold Selectivity γ/δ. The molecule in question is `C[C@@H]1COCCN1Cc1cc2nc(-n3c(C(F)F)nc4ccccc43)cc(N3CCOCC3)n2n1`
Out: 3.0

In: Report Fold Selectivity γ/δ for NC1CCN(C(=O)c2cc3nc(-n4c(C(F)F)nc5ccccc54)cc(N4CCOCC4)n3n2)C1 (stereo not drawn) please.
Out: 14

In: Recorded Fold Selectivity γ/δ of `CNC(=O)CN1CCN(Cc2cc3nc(-n4c(C(F)F)nc5ccccc54)cc(N4CCOCC4)n3n2)CC1` , please.
Out: 20

In: Tell me the measured Fold Selectivity γ/δ of `N#CC1CCN(Cc2cc3nc(-n4c(C(F)F)nc5ccccc54)cc(N4CCOCC4)n3n2)CC1` , please.
Out: 16

In: Any idea what Fold Selectivity γ/δ was measured for `CC(C)(C)N1CCN(C(=O)c2cc3nc(-n4c(C(F)F)nc5ccccc54)cc(N4CCOCC4)n3n2)CC1` ?
Out: 581

In: Request the reported Fold Selectivity γ/δ associated with `O=C(c1cc2nc(-n3c(C(F)F)nc4ccccc43)cc(N3CCOCC3)n2n1)N1CCC(CO)CC1`
Out: 20

In: Which value of Fold Selectivity γ/δ has been reported for `O=C(c1cc2nc(-n3c(C(F)F)nc4ccccc43)cc(N3CCOCC3)n2n1)N1CCN(C(=O)C2CC2)CC1` in the records?
Out: 61

In: Any idea what Fold Selectivity γ/δ was measured for `Cc1nc2ccccc2n1-c1cc(N2CCOCC2)n2nc(CN3CCC(C(C)(C)O)CC3)cc2n1` ?
Out: 136

In: Name the reported Fold Selectivity γ/δ value associated with the molecule `NC(=O)C1CCN(Cc2cc3nc(-n4c(C(F)F)nc5ccccc54)cc(N4CCOCC4)n3n2)CC1`
Out: 7.7

In: So what's the measured Fold Selectivity γ/δ for this one? `O[C@@H]1CCN(Cc2cc3nc(-n4c(C(F)F)nc5ccccc54)cc(N4CCOCC4)n3n2)C1`
Out: 8.6

In: Fold Selectivity γ/δ for `FC(F)c1nc2ccccc2n1-c1cc(N2CCOCC2)n2nc(CN3CCOCC3)cc2n1` ?
Out: 10

In: Data request, read-out Fold Selectivity γ/δ, for `CC(C)N1CCN(Cc2cc3nc(-n4c(C(F)F)nc5ccccc54)cc(N4CCOCC4)n3n2)CC1`
Out: 351

In: Returns the measured Fold Selectivity γ/δ for the input molecule. Input: `FC(F)c1nc2ccccc2n1-c1cc(N2CCOCC2)n2nc(CN3CCC(F)(F)CC3)cc2n1`
Out: 3.9

In: Could you share which Fold Selectivity γ/δ value was measured for `C[C@H]1COCCN1Cc1cc2nc(-n3c(C(F)F)nc4ccccc43)cc(N3CCOCC3)n2n1` ?
Out: 2.3

In: Suppose we examine the molecule `CC(C)(C)N1CCN(Cc2cc3nc(-n4c(C(F)(F)F)nc5ccccc54)cc(N4CCOCC4)n3n2)CC1` ; what Fold Selectivity γ/δ value has been reported?
Out: 149

In: // Fold Selectivity γ/δ lookup, key: `O=C(c1cc2nc(-n3c(C(F)F)nc4ccccc43)cc(N3CCOCC3)n2n1)N1CCC(N2CCOCC2)CC1`
Out: 65

In: Record request: Fold Selectivity γ/δ value, item `N#CC1CCN(C(=O)c2cc3nc(-n4c(C(F)F)nc5ccccc54)cc(N4CCOCC4)n3n2)CC1`
Out: 4.7

In: Returns the measured Fold Selectivity γ/δ for the input molecule. Input: `CNC(=O)CN1CCN(C(=O)c2cc3nc(-n4c(C(F)F)nc5ccccc54)cc(N4CCOCC4)n3n2)CC1`
Out: 26

In: Return reported Fold Selectivity γ/δ; argument: `CC(C)(O)C1CCN(Cc2cc3nc(-n4c(C(F)F)nc5ccccc54)cc(N4CCOCC4)n3n2)CC1`
Out: 122

In: Consider the molecule `NC(=O)C1CCN(C(=O)c2cc3nc(-n4c(C(F)F)nc5ccccc54)cc(N4CCOCC4)n3n2)CC1` and give its measured Fold Selectivity γ/δ.
Out: 9

###

- tested target: PI3Kβ (Homo sapiens)
- Construct: purchased Merck Millipore
- Sequence (P42338 whole entry, looked up): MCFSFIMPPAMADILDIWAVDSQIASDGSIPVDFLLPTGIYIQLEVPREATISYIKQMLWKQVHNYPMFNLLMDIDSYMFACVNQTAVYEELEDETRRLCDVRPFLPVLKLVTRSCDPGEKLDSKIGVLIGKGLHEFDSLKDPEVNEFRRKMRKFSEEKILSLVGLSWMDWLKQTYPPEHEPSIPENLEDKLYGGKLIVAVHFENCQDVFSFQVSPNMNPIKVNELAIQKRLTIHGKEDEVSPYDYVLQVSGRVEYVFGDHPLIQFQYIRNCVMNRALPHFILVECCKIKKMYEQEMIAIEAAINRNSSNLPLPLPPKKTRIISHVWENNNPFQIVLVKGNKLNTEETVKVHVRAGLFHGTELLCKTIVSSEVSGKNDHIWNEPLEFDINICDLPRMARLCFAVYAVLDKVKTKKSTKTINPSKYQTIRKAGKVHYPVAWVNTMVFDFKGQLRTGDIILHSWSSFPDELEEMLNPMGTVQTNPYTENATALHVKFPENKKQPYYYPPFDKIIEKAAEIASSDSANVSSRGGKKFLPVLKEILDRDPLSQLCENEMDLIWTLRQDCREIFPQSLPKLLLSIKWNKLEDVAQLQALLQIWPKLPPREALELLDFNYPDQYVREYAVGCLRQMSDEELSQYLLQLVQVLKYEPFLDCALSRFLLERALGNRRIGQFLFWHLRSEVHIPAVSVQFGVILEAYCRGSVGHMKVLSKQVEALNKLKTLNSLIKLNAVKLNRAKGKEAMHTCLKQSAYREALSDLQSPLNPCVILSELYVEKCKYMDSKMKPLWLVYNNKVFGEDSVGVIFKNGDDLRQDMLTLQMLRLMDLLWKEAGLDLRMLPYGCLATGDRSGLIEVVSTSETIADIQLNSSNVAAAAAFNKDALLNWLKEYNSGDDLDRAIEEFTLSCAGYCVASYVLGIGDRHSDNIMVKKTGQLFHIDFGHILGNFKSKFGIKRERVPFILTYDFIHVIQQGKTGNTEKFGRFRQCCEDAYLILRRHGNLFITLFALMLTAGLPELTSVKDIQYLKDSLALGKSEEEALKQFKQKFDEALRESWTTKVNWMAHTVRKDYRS
- experiment: In vitro PI3K inhibition assay (ADP-Glo kinase assay), PI3Kβ
- Assay type: biochemical
- measurement parameters: mean of two independent experiments
property measured: log10 IC50 (log10 of the value in µM)
Log scale reminder: IC50 in µM, then log10 taken.

Solved entries (count: 4):
                                smiles_data  endpoint_value
0  CS(=O)(=O)N1CCN(Cc2cc3nc(-n4c(C(F)F)nc5ccccc54)cc(N4CCOCC4)n3n2)CC1            1.13
1  O=C(C1CC1)N1CCN(Cc2cc3nc(-n4c(C(F)F)nc5ccccc54)cc(N4CCOCC4)n3n2)CC1            1.68
2  CC(C)(C)N1CCN(Cc2cc3nc(-n4c(C(F)F)nc5ccccc54)cc(N4CCOCC4)n3n2)CC1            1.41
3  CC(C)(C(N)=O)N1CCN(Cc2cc3nc(-n4c(C(F)F)nc5ccccc54)cc(N4CCOCC4)n3n2)CC1            1.65

In: State the recorded log10 IC50 for this entry: `CC(C)(C)N1CCN(Cc2cc3nc(-n4c(C5CC5)nc5ccccc54)cc(N4CCOCC4)n3n2)CC1`
Out: 2.41

In: Consider the compound `Cc1nc2ccccc2n1-c1cc(N2CCOCC2)n2nc(CN3CCC(C(C)(C)O)CC3)cc2n1` and give its measured log10 IC50.
Out: 2.29

In: Would you mind telling me what log10 IC50 value was observed for `CCc1nc2ccccc2n1-c1cc(N2CCOCC2)n2nc(CN3CCN(C(C)(C)C)CC3)cc2n1` ?
Out: 2.42

In: So what's the measured log10 IC50 for this one? `Cc1nc2ccccc2n1-c1cc(N2CCOCC2)n2nc(CN3CCN(C(C)(C)C)CC3)cc2n1`
Out: 2.47

###

# log10(IC50) per entry for PI3Kγ (Homo sapiens, UniProt P48736)
Parameter value (number): base-10 log of IC50 in µM.

>>> df
                                smiles_data                         tested_target  endpoint_value
0  CC(C)(C)N1CCN(Cc2cc3nc(-n4c(C(F)(F)F)nc5ccccc54)cc(N4CCOCC4)n3n2)CC1  PI3Kγ (Homo sapiens, UniProt P48736)            2.13

In: Item `O=C(c1cc2nc(-n3c(C(F)F)nc4ccccc43)cc(N3CCOCC3)n2n1)N1CCN(C(=O)C2CC2)CC1` with PI3Kγ (Homo sapiens, UniProt P48736) - log10(IC50)?
Out: 0.58

In: Requested read-out log10(IC50), target or system PI3Kγ (Homo sapiens, UniProt P48736), entry `O=C(c1cc2nc(-n3c(C(F)F)nc4ccccc43)cc(N3CCOCC3)n2n1)N1CCOCC1`
Out: 0.93

In: PI3Kγ (Homo sapiens, UniProt P48736) / log10(IC50) / `OC1CCN(Cc2cc3nc(-n4c(C(F)F)nc5ccccc54)cc(N4CCOCC4)n3n2)CC1` : value?
Out: 0.64
